FYI, the data here is from the DeepSol protein solubility set.

Experiment: soluble on expression in E. coli; label from the status in PepcDB or PDB records
quantityName: soluble on expression in E. coli

* MDAPLAEQDLKALFLRHARQLQSYLLRKTRDPHLAADLAQESFLRLAEQRHKEPIEHVDAYLYRTAHNLTIDHYRQERRRRTETQPNDDLAGFVADQPGPEESAVDADALARLREIVAELPPRTREIFRLNRLEGLTHAEVARRLEISDSSVQKHLARTLAHVMQALEDSR | not soluble
* MRKICCLLFAVFILCISASCYQRKETRISQPVIMPAIQSPEDIDDYIGEKGYEILESKGKTEEYTLDKKRVYNNWQIWAVQYPEPDHYLGKEISIYSYIIRNHPLDDKSPNKKTYLSVMICENTIIGGYSSPYYEEKDISLVPIGGVYSLEGKNFEEIKNINFDRWRKRFIKKYE | not soluble
* MPVNATGVSFSSFGISYHKDNSFRGTIRGKNDEVVKCSMGERSIRFNVNKFSGCILETVSRQSTKDIHGWVSDERTVYPSRVINQEIDNCCLQKNAKISSEERKMVFSLVSKEFELTLDVKAAQSSINHIIIGNASFGKKMDALCDGMSRAVKNSTTDYIANVLADKFYQKHIAPGVDIVKLRNEIPGYMSRVIQG | not soluble

----------
Test: soluble on expression in E. coli; label from the status in PepcDB or PDB records
quantityName: soluble on expression in E. coli

* MSLPAKRKLTMRHIRQMLRLAGSGTSSREIAVMLGIARSTVQDNLKRAAMAGLSWALASGLTDDVLEAKLFVHPGVKRGQRLRQEPDWGPLSIELKKPGVTLLILWEEYRSAHPDGYGYSRFCELFRGFEKRLSPTMRQEHIAGDKVFVDYSGKKVPIVDRKTGEIREAELFLGVLGASSYCTRGRSVHLGELLRRAWIFQHLGNREGHHHHHH | not soluble
* MGSDKIHHHHHHMRLDEYISRDIAWCPGCGNFGIRTALMKALEELNVDPRQVVIVSGIGQAAKMPQYVGVNMFNGLHGRALPVATAIKTTNPNLLVIAESGDGCMYGEGGNHFIHTIRRNPDIVNIVHDNQVYGLTKGQASPTSLKGFKTPVQVDGVILEPFNPLAVAIALDASFVARTFIGDIEFTKDILKEAMKHKGYALVDILQPCVTFNKLNTYEWYRENTYYLKDHDPTDRELAFKRAIETEKLPLGIFYVNKNKETFEELARKGDRTPLYEYEVNFEKLKELIESKKS | not soluble
* MKANKVLFITQEITPYVPESEMANMGRFLPQAIQEKGREIRTFMPKWGNVNERRNQLHEVIRLSGMNLIIDDTDHPLIIKVASIQAARMQVYFIDNDDYFQHRQMVADENGVEYKDNDERAIFYARGVLETVKKLRWCPDIIHCQGWMSAFVPLYIKKAYQDEPSFRDSKVVFSVFEDDFKSDCEGNLTEKLMLKGIEKNDVESIVKSPANYEELCKLAIAYSDGVIQNSEKVNENVMKFARESGVPVLDYQPADTYVDAFNEFYDKVWEFEKK | not soluble

----------
Assay: soluble on expression in E. coli; label from the status in PepcDB or PDB records
quantityName: soluble on expression in E. coli

* MTIWEISEKADYIAQRHRRLQDQWHIYCNSLVQGITLSKARLHHAMSCAPDKELCFVLFEHFRIYVTLADGFNSHTIEYYVETKDGEDKQRIAQAQLSIDGMIDGKVNIRDREQVLEHYLEKIAGVYDSLYTAIENNVPVNLSQLVKGQSPAA | soluble
* GLGGFTRTRNKGKSNVIDMIQKYIESKGMPIENWDITVGYCTNLEEAEKYRDDVEAQLGVKLLERREDFKTRISIISGCHTGPYALGIACIPKYTTIRL | not soluble
* QETGISMIGERTNSNGSKAFREAMLSGDWEKCVDIAKQQTRDGAHMLDLCVDYVGRDGTADMATLAALLATSSTLPIMIDSTEPEVIRTGLEHLGGRSIVNSVNFEDGDGPESRYQRIMKLVKQHGAAVVALTIDEEGQARTAEHKVRIAKRLIDDITGSYGLDIKDIVVDCLTFPISTGQEETRRDGIETIEAIRELKKLYPEIHTTLGLSNISFGLNPAARQVLNSVFLNECIEAGLDSAIAHSSKILPMNRIDDRQREVALDMVYDRRTEDYDPLQEFMQLFEGVSAAD | not soluble
* RADEQAFLVALYKYMKERKTPIERIPYLGFKQINLWTMFQAAQKLGGYETITARRQWKHIYDELGGNPGSTSAATCTRRHYERLILPYERFIKGEEDKPLPPIKPRK | soluble
* MTTLKLFDIEHAWGLPRKVSPRFGARLILRGLHLDYLHDRASFVGEFPPAIKQQFVEAFPAMVKQLERLVATGEIDTTEQHCVSIEHAGFTCEADTLGSHGYLYIAIYQTKAKPLTTSNLTITR | not soluble
* MAHHHHHHMTGSNGNDEPFKREMRTVKVPHHRFPALKKVWMDVYTPIVEQCKLEIRMNLRGRSVELRTCPATVEAAGNEGSKALLQKAEDFVKAVVAGFDVKDAVALLRMDDVYIEGFEVKDVRANLQGDNLSRCIGRMSGSHGKTKHTIENVTRTRIVIADTHICIMGTTQNIRVARDALCDLIRGSPATKVYTRVRAVMNRVNDTF | soluble
* MGSDKIHHHHHHMRNYQIPNLFNLGDLETKKVLKAANQAHQALGELKGVVQTVPNQNILLGTLPLQEAKESSEIENIITTQDDLYQSNVATQQFTTIAAKEVHHYAQAVSFGFSEVRKTELITLNLIKQIQAKLEGNNAGFRKQIGTGLVNQRTGQVVYMPPQQPEMIEHYMSVLERFINDSEQIDYDPLVKMAIVHHQFESIHPFYDGNGRTGRIINILYLIQQNLLDTPILYLSRYINRNKDQYYYLLQFVRDHNDWEEWLIFMLNGIAETAKQTVDLINQIKKLMQEHKLLIRNQLPNIYSHELINNLYKYPYTKIDFIAEDCQVHRNTAGKRLEQLVDLGILKKVKIGKENFYINMELYYLLTK | not soluble
* MRLRLALFSSLLAATFAITGCDQSSETPDNAATISIEHAQGTTLVPLNPQKVVILNPSVLDNADALHIKVAGVPQTSTHLPAFLSKYSGPEYMNTGTLFEPDYEALSQAKPDLIIAGGRAQDAYNKLSAIAPTIALDVDTQHFTQSLTQRTEQLASIFGKEEEAKTLLGNFSSQVNAIKQKSANAGSAMVLMISGGKMSAYTPGSRFGFIFDELGFTPAATFAESGRHGNVVTSEFILNANPDWLFVLDRDNAIGRTEGQSAQQVLDNPLIHKTKAWQNDRIVYLDSASLYIAGGVQSYTQLMNKVSAILDKPVSEQ | not soluble
* MRYADRVTFVKTTDEQYNPDLGEYTHTEVISITKPCFVMDMGMEKSVQIFGDYQKDRKVIYLKQPYTKAFDYCEYEGRRYKTQANKLGAIVFYLEGDDSIGG | not soluble
* MRDTFPSLQAQHLHGIDEQALRPAFSTHKPRILILYGSLREVSYSRLLAFEAGRLLERLGCEVRIFDPKGLPLPDETPASHAKVQELRDLSQWSEGQVWVSPERHGAMTGIMKSQIDWIPLAVGSVRPTQGKTLAVMEVSGGSQSFNAVNQMRILGRWMRMITIPNQSSVARAFQEFDEDGRMRPSSYYDRVVDVCEELVKFTLLTRDASAYLTDRYSERKEQAAELEKRVSLKS | not soluble
* MDDSTLRDRLEQLGLSEKEVDTYLSILSSGEATASEIADDTGVSKRYVYSISESLEDRGFVEVNDHVVPTTIRARPPEEVIDALTDRLEEMSGALDSRYSASAREPQQFDVIKSRVTVIKRLTEYIRNAEREIMLSVPQQYLPEISEELGAAVDRGVLVMLVVSSADNLRSDDASGLASVVRSWDQPMPIMLTVDAQFGLVSPAEMVTRTNSDQRAIAFVQQQLVPVLSGSFLGNYWLMATEVAVTDPAPLPATYHDFRHAVLQATLHLRADHDIHVSADVRAVQADDDTTTIEGTVVETKQGLVEPETNSYPIEHTLVVDIGDRTVSLGGSGSFLEDYETDAVTLSLAE | not soluble
* MKGQLAFDLPIRPALSREDFFISPANALALASLDGWRDWPRGKMVLVGPRGSGKTHLAHIWAAQAEARLIPAEALARADLPALAADGAVAVEDAERLGGDRAAEEALFHLHNLMLERAGALLITAAGPPRDWGLGLADLKSRMQAASVTRLEAPDDALLSAMLVKLFTDRQIAVPGMLVPWLVARMDRSCEAARALVAALDARSLAERRPISRQMAAELLGLTATDLEHHHHHH | not soluble
* MARLTAYERRKFRVRNRIKRTGRLRLSVFRSLKHIYAQIIDDEKGVTLVSASSLALKLKGNKTEVARQVGRALAEKALALGIKQVAFDRGPYKYHGRVKALAEGAREGGLEF | soluble
